biological target: hepsin (Homo sapiens, UniProt P05981); construct: purchased R&D Systems 4776-SE-010; test: Fluorogenic kinetic enzyme inhibitor assay, hepsin; format: biochemical; details: read-out: Hepsin IC50
Sequence (P05981 163-417 limits assumed): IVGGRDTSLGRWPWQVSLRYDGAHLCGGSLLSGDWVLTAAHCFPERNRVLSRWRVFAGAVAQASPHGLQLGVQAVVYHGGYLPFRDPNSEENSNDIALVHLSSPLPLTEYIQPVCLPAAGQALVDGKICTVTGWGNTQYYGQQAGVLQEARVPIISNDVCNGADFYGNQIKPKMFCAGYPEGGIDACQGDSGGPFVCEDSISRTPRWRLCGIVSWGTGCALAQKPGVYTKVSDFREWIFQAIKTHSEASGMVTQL
Sequence (P05981 1-162 partner limits assumed): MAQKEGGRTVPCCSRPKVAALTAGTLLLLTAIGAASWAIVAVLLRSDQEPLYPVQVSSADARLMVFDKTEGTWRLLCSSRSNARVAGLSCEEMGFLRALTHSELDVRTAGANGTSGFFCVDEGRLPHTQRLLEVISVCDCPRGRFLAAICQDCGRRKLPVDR
Numbered stars: 1 amine (or outer) side, 2 acyl side, 3 side chain; on linkers, the order of the positions; unused ones are H or OH. Square brackets hold non-standard residues; d marks the D form. Peptide text beside a SMILES is read from it. X1 = N=C(N)NCCC[C@H](N[*:1])C(=O)c1nc2ccc(C(=O)[*:2])cc2s1
Let's look at some compounds and their measured log10 IC50.
Note the log scale: values are log10 of IC50 expressed in nM.

Answered cases to consult:
CC(=O)N[C@H]1Cc2ccc(cc2)OC/C=C\C[C@@H](C(=O)N[C@@H](CCCNC(=N)N)C(=O)c2nc3ccccc3s2)NC(=O)[C@H](CC(C)C)NC1=O
-0.77
CCC(C)[C@H](NC(C)=O)C(=O)N[C@@H](CCC(N)=O)C(=O)N[C@@H](CO)C(=O)N[C@@H](CCCNC(=N)N)C(=O)c1nc2ccccc2s1 (some centres unmarked)
0.38
CC(=O)N[C@@H](CO)C(=O)N[C@H](Cc1c[nH]c2ccccc12)C(=O)N[C@@H](CC(C)C)C(=O)N[C@@H](CCCNC(=N)N)C(=O)c1nc2ccc(C(=O)N[C@H](C(N)=O)C(C)C)cc2s1 [JH1114] (Ac-S[dW]L[X1]V-NH2)
0.26

Challenge: Using the record for N=C(N)NCCC[C@H](NC(=O)[C@@H](NC(=O)OCc1ccccc1)c1cccs1)C(=O)c1nc2ccccc2s1 , report its log10 IC50.
Response given: 0.78

Challenge: Next compound: CC(=O)N[C@@H](CO)C(=O)NCc1cccc(CC(=O)N[C@@H](CC(C)C)C(=O)N[C@H](CCCNC(=N)N)C(=O)c2nc3ccccc3s2)c1
Response given: 0.28

* * *

biological target: hepsin (Homo sapiens, UniProt P05981); construct: purchased R&D Systems 4776-SE-010; assay: Fluorogenic kinetic enzyme inhibitor assay, hepsin; assay type: biochemical; details: read-out: Hepsin IC50
Numbered stars: 1 amine (or outer) side, 2 acyl side, 3 side chain; on linkers, the order of the positions; unused ones are H or OH. Square brackets hold non-standard residues; d marks the D form. Peptide text beside a SMILES is read from it. X1 = N=C(N)NCCC[C@H](N[*:1])C(=O)c1nc2ccc(C(=O)[*:2])cc2s1; Phe(4-NO2) = N[C@@H](Cc1ccc([N+](=O)[O-])cc1)C(=O)O
Each item that follows carries a reported pIC50.
Units for pIC50: none; it is -log10 of a concentration expressed in mol/L.

Reference set (3 entries):
CCC(C)[C@H](NC(C)=O)C(=O)N[C@@H](CO)C(=O)N[C@@H](Cc1ccccc1)C(=O)N[C@@H](CCCNC(=N)N)C(=O)c1nc2ccccc2s1 (stereo partly drawn)
8.98
N=C(N)NCCC[C@H](NC(=O)[C@H](CCC1CCCCC1)NC(=O)OCC1c2ccccc2-c2ccccc21)C(=O)c1nc2ccccc2s1
5.64
CC(=O)N[C@H](Cc1c[nH]c2ccccc12)C(=O)N[C@@H](CC(C)C)C(=O)N[C@@H](CCCNC(=N)N)C(=O)c1nc2ccccc2s1
8.80

Challenge: Bench note: what pIC50 did CC(=O)N[C@@H](CO)C(=O)N[C@@H](Cc1ccc([N+](=O)[O-])cc1)C(=O)N[C@@H](CC(C)C)C(=O)N[C@@H](CCCNC(=N)N)C(=O)c1nc2ccc(C(=O)N[C@H](C(N)=O)C(C)C)cc2s1 [MM1180] (Ac-S[Phe(4-NO2)]L[X1]V-NH2) show?
Response given: 8.51

Challenge: Next molecule up: N=C(N)NCCC[C@@H](NC(=O)[C@H](Cc1ccccc1)NC(=O)[C@H](CCC(N)=O)N1CCCCC1)C(=O)c1nc2ccccc2s1
Response given: 6.98

Challenge: Try the molecule CC(=O)N[C@@H](Cc1cncn1COCc1ccccc1)C(=O)N[C@@H](CCCCNC(=N)N)C(=O)N[C@@H](CCC(C)C)C(=O)N[C@@H](CCCNC(=N)N)C(=O)c1nc2ccccc2s1
Response given: 9.14
